molecular target: other members of the PDE family (Homo sapiens, UniProt O00408); test: In vitro PDE selectivity assay (SPA), other members of the PDE family (protocols in Table A); format: biochemical; conditions: hPDE2A; read-out: PDE 2A (expressed as pIC50) (converted)
Sequence (O00408 whole entry): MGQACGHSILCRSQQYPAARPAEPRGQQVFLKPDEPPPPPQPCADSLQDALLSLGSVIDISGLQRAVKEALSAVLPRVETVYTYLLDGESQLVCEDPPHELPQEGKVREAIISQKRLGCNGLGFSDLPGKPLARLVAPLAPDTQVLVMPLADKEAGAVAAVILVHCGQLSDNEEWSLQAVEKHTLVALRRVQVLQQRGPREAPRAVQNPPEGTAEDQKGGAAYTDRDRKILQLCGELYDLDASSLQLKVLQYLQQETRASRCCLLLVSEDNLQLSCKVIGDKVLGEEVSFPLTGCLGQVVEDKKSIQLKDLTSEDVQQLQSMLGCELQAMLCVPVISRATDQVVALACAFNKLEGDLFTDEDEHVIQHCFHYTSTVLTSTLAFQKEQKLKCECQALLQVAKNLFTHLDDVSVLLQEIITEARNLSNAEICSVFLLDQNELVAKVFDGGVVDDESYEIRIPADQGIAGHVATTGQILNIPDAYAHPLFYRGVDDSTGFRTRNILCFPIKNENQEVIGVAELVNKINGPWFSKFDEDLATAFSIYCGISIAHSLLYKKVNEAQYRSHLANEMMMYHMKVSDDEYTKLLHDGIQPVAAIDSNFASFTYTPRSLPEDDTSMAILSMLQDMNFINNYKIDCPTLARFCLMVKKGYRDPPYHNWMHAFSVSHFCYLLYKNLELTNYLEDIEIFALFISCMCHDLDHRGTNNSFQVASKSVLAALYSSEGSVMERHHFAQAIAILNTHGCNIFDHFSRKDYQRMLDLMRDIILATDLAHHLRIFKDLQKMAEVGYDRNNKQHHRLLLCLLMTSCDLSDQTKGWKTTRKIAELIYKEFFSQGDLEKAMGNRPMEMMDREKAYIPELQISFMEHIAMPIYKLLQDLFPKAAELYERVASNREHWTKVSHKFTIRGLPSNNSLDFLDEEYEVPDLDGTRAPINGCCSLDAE
Reported IC50 by item:

Recorded results for 4 molecules are shown here.
> print(dat)
                                 cpd.smiles   result
1  Cc1cc(N2CCOCC2)c2nc(C)c(-c3ccc(N4CCOCC4)nc3)n2n1  > 10 µM
2  COC(C)(C)CCc1ccc(-c2c(C)nc3c(N4CCOCC4)ccnn23)cn1   1.2 µM
3  COCCOc1ccc(-c2c(C3CC3)nc3c(N4CCOCC4)cc(C)nn23)cn1  > 10 µM
4  CO[C@@H](C)Cn1cc(-c2c(C)nc3c(N4CCOCC4)ccnn23)cn1  > 10 µM

Alright, here's another molecule for you.
-- ask I would be grateful if you could share the reported IC50 for COCCc1ccc(-c2cnc3c(-c4ccncc4)ccnn23)cn1 .
-- reply > 10 µM

###

biological target: Rat recombinant PDE10A (rPDE10A2) (Rattus norvegicus); construct: inferred from the Ni metal chelate purification; made in house; host or cells: Sf9 insect cells (baculovirus); assay: In vitro assay PDE10A (SPA, 3H-cAMP); format: biochemical; conditions: Table 4 in vitro selectivity; read-out: PDE 10A2 (expressed as pIC50) (converted)
EXPERIMENTAL ENDPOINT: IC50 (µM)

Recorded results for 4 compounds are shown here.
> print(dat)
                                 cpd.smiles                          target.or.system  readout.units  recorded.number
1  COC(C)(C)Cc1ccc(-c2c(C)nc3c(-c4ccncc4)ccnn23)cn1  Rat recombinant PDE10A (rPDE10A2) (Rattus norvegicus)             µM           0.0257
2  Cc1nc2c(N3CCOCC3)ccnn2c1-c1ccc(C(C)C)nc1  Rat recombinant PDE10A (rPDE10A2) (Rattus norvegicus)             µM           0.0776
3  COC(C)(C)Cn1cc(-c2c(C3CC3)nc3c(-c4ccncc4)ccnn23)cn1  Rat recombinant PDE10A (rPDE10A2) (Rattus norvegicus)             µM           0.0174
4  Cc1cc(-c2ccncc2)c2nc(C3CC3)c(-c3ccc(N4CCOCC4)nc3)n2n1  Rat recombinant PDE10A (rPDE10A2) (Rattus norvegicus)             µM           0.0832

1 = COCCn1cc(-c2c(C)nc3c(-c4ccncc4)cc(Cl)nn23)cn1
2 = Cc1nc2c(-c3ccncc3)ccnn2c1-c1cnn(CC(C)C)c1
3 = COCCOc1ccc(-c2c(C)nc3c(N4CCOCC4)ccnn23)cn1
4 = COCCn1cc(-c2c(C)nc3c(-c4ccncc4)cc(C(F)(F)F)nn23)cn1
-- ask Order the entries by their reported IC50, beginning at the minimum. I would appreciate it if you listed the labels in the requested order.
-- reply 2, 1, 3, 4
(2: 0.0224 µM, 1: 0.0676 µM, 3: 0.12 µM, 4: 2.63 µM)

###

target: other members of the PDE family (Homo sapiens, UniProt Q13946); assay: In vitro PDE selectivity assay (SPA), other members of the PDE family (protocols in Table A); type: biochemical; settings: hPDE7A1; read-out: PDE 7A (expressed as pIC50) (converted)
Sequence (Q13946 whole entry): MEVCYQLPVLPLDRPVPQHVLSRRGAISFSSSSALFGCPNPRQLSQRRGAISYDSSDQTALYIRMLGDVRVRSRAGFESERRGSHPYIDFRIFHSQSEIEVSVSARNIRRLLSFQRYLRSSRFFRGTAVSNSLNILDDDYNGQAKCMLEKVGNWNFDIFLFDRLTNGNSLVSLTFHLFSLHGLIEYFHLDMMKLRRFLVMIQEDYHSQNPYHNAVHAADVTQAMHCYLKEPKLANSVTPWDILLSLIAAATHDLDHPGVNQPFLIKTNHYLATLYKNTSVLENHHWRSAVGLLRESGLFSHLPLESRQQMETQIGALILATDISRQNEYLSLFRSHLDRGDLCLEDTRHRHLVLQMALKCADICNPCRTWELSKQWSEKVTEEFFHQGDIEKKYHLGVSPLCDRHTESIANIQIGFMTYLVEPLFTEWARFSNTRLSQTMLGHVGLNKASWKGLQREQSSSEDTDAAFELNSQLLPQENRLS
EXPERIMENTAL ENDPOINT: IC50 (µM)

Recorded results for 2 compounds are shown here.
> print(dat)
                                 cpd.smiles  experimental.endpoint  recorded.number
1  COCCn1cc(-c2c(C)nc3c(-c4ccncc4)cc(Cl)nn23)cn1                   IC50             3.55
2   CCc1ccc(-c2c(C)nc3c(N4CCOCC4)ccnn23)cn1                   IC50             25.7

1 = COCCc1ccc(-c2c(C3CC3)nc3c(N4CCOCC4)ccnn23)cn1
2 = CC(C)Cn1cc(-c2c(C3CC3)nc3c(-c4ccncc4)ccnn23)cn1
3 = COCCn1cc(-c2c(C3CC3)nc3c(-c4ccncc4)ccnn23)cn1
-- ask List items by IC50 in falling order. I would appreciate it if you listed the labels in the requested order.
-- reply 1, 3, 2
(1: 28.2 µM, 3: 5.01 µM, 2: 2.88 µM)

###

Biological target: Rat recombinant PDE10A (rPDE10A2) (Rattus norvegicus)
Construct: inferred from the Ni metal chelate purification; made in house; host or cells: Sf9 insect cells (baculovirus)
Sequence (Q9QYJ6 1-794): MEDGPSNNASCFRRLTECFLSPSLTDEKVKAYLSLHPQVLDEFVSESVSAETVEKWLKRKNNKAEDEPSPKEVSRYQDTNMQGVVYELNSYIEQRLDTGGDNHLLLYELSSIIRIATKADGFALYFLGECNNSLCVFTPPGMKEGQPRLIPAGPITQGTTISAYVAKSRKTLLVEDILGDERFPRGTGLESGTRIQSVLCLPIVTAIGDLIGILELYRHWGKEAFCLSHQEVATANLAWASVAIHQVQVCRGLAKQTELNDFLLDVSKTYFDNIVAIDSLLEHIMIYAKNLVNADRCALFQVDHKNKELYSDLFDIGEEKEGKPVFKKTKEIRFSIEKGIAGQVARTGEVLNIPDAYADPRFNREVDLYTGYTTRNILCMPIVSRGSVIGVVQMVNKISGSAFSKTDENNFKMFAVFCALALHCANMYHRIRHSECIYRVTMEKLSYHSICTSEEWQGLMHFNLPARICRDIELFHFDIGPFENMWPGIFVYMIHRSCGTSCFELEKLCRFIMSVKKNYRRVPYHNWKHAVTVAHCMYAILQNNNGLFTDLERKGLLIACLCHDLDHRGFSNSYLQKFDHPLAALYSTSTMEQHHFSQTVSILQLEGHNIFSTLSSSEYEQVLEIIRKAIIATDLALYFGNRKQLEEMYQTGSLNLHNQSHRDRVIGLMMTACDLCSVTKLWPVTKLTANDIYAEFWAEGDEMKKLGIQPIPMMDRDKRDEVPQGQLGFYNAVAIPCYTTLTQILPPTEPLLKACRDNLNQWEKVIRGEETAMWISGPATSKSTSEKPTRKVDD
Assay: In vitro assay PDE10A (SPA, 3H-cAMP)
Format: biochemical
Conditions: pIC50 corresponds to the −log IC50 expressed in mol/L; read-out: PDE10A2 pIC50 (converted)
EXPERIMENTAL ENDPOINT: IC50 (µM)

Recorded results for 3 compounds are shown here.
> print(dat)
                                 cpd.smiles  experimental.endpoint  recorded.number
1  CCOCc1ccc(-c2c(C)nc3c(N4CCOCC4)ccnn23)cn1                   IC50            0.055
2  Cc1nc2c(N3CCOCC3)ccnn2c1-c1ccc(N2CCCC2)nc1                   IC50            0.132
3  Cc1nc2c(N3CCOCC3)ccnn2c1-c1ccnc(OC(C)C)c1                   IC50           0.0871

I = COCCn1cc(-c2c(C)nc3c(-c4ccncc4)cc(C(F)(F)F)nn23)cn1
II = CO[C@@H]1CCN(c2ccc(-c3c(C)nc4c(N5CCOCC5)ccnn34)cn2)C1
III = Cc1nc2c(N3CCOCC3)ccnn2c1-c1ccnc(CC(C)C)c1
IV = COC(C)(C)Cn1cc(-c2c(C3CC3)nc3c(-c4ccncc4)ccnn23)cn1
V = COCCn1cc(-c2c(C)nc3c(N4CCOCC4)ccnn23)cn1
-- ask Order the entries by their reported IC50, beginning at the minimum. I would appreciate it if you listed the labels in the requested order.
-- reply IV, III, V, II, I
(IV: 0.0174 µM, III: 0.0251 µM, V: 0.0562 µM, II: 0.117 µM, I: 2.63 µM)

a = Cc1cc(N2CCOCC2)c2nc(C)c(-c3ccc(N4CCOCC4)nc3)n2n1
b = COC(C)(C)Cc1ccc(-c2c(C)nc3c(N4CCOCC4)cc(C)nn23)cn1
-- ask I'm curious, which of these has a smaller IC50 number: a or b ? // return label of chosen record
-- reply b

###

target: PDE4D3 (Homo sapiens, UniProt Q08499); assay: In vitro PDE selectivity assay (SPA), PDE4D3; type: biochemical; conditions: hPDE4D3; read-out: PDE 4D3 (expressed as pIC50) (converted)
Sequence (Q08499 1-673 isoform Q08499-2): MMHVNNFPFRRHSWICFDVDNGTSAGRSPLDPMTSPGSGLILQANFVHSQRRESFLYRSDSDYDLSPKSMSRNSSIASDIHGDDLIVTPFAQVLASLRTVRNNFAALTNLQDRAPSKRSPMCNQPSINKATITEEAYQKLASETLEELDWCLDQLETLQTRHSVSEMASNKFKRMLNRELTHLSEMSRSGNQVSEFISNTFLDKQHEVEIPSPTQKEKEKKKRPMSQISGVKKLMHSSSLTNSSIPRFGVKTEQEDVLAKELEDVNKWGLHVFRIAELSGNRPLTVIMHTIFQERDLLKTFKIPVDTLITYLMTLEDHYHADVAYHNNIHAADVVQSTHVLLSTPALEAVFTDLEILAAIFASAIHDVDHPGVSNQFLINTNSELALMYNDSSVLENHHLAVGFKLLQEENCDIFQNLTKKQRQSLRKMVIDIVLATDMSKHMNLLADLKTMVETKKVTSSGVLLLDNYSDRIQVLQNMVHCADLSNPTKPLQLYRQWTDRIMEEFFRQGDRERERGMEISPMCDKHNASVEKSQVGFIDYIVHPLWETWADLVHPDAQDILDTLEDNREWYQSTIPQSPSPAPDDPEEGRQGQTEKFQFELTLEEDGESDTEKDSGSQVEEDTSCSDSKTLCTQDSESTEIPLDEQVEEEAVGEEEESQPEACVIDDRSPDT
EXPERIMENTAL ENDPOINT: IC50 (µM)

Recorded results for 2 molecules are shown here.
> print(dat)
                                 cpd.smiles  experimental.endpoint  recorded.number
1  COCCc1ccc(-c2c(C)nc3c(N4CCOCC4)ccnn23)cn1                   IC50             30.9
2  COCCn1cc(-c2c(C)nc3c(N4CCOCC4)cc(C4CC4)nn23)cn1                   IC50             2.09

P = COCCc1ccc(-c2c(C3CC3)nc3c(N4CCOCC4)ccnn23)cn1
Q = COCCc1ccc(-c2c(C3CC3)nc3c(-c4ccncc4)ccnn23)cn1
-- ask Choose between P and Q : whose measured IC50 value is numerically larger? // return label of chosen record
-- reply P
